Test system: MOLM14;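 further: after 48 h exposure read by CellTiter-Glo luminescence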
Assay: cell viability relative to vehicle control; higher = less cytotoxic
Settings: 10 µM; SRSF2 genotype: SRSF2 P95H/wt
readout: cell viability (%)
Enter your answer as a number in %; do not include the unit.

Known cell viability results, listed for orientation:
molecule="O=C1C(=O)c2ccccc2C(O)=C1C1CCC(c2ccc(Cl)cc2)CC1 (stereo not drawn)" targetsystem=MOLM14 observedresult=84.7
molecule=Nc1ncnc2c1nc(Br)n2[C@@H]1O[C@@H]2COP(=O)(O)O[C@H]2[C@H]1O targetsystem=MOLM14 observedresult=65.9
molecule=CC(C)(F)C[C@H](N[C@@H](c1ccc(-c2ccc(S(C)(=O)=O)cc2)cc1)C(F)(F)F)C(=O)NC1(C#N)CC1 targetsystem=MOLM14 observedresult=104

Inquiry: Item CN1CCN(Cc2ccc(NC(=O)Cc3ccc(Oc4cc(NC(=O)C5CC5)ncn4)cc3)cc2C(F)(F)F)CC1 with MOLM14 - cell viability?
Reply text: 1.39

Inquiry: Query cell viability on MOLM14 for CN1Cc2c(ccc3c2OCO3)[C@@]2(C)[C@@H](O)Cc3cc4c(cc3[C@@H]12)OCO4
Reply text: 8.94

Inquiry: Give recorded cell viability with MOLM14 for the following molecule: Cc1ccc(S(=O)(=O)n2c(N)nc3ccccc32)cc1
Reply text: 102

Inquiry: Lab note: need cell viability for O=C1C(=O)N(Cc2ccc(Cl)c(Cl)c2)c2ccccc21 on MOLM14, anyone have it?
Reply text: 3.92

Inquiry: What measured cell viability is associated with CNC(=O)c1ccc(-c2cnc3ncc(Cc4ccc5ncccc5c4)n3n2)cc1F on MOLM14?
Reply text: 103

Inquiry: Please state recorded cell viability (tested on MOLM14) of N#Cc1cc(-c2n[nH]c(-c3ccncc3)n2)ccn1;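 further: after 48 h exposure read by CellTiter-Glo luminescence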
Reply text: 104

Inquiry: # query: cell viability | item Cc1csc(-c2nnc(Nc3ccc(Oc4ncccc4-c4ccnc(N)n4)cc3)c3ccccc23)c1 | system: MOLM14;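 further: after 48 h exposure read by CellTiter-Glo luminescence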
Reply text: 53.3

Inquiry: I'm curious: which cell viability was measured for Cc1cccc(C#Cc2ccccc2)n1 tested on MOLM14?;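 further: after 48 h exposure read by CellTiter-Glo luminescence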
Reply text: 111

----------
Tested on: MOLM14;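 further: after 48 h exposure read by CellTiter-Glo luminescence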
Assay: cell viability relative to vehicle control; higher = less cytotoxic
Details: 10 µM; SRSF2 genotype: SRSF2 P95H/wt
readout: cell viability (%)
Entry rule: numbers only, all in %.

compound=CCN(CC)c1ccc2c(-c3ccccc3C(=O)O)c3ccc(=[N+](CC)CC)cc-3oc2c1 observedresult=48.5
compound="COC(=O)N[C@H](C(=O)N1CCC[C@H]1c1ncc(-c2ccc(-c3ccc(-c4cnc([C@@H]5CCCN5C(=O)[C@@H](NC(=O)OC)C(C)C)[nH]4)cc3)cc2)[nH]1)C(C)C [Daclatasvir Digydrochloride]" observedresult=67.7
compound="C[C@]1(O)C[C@@H](O)[C@]2(O)C=CO[C@@H](O[C@H]3O[C@H](CO)[C@@H](O)[C@H](O)[C@H]3O)[C@@H]21 [Harpagide]" observedresult=106
compound="O=C(O)Cc1ccccc1Nc1c(Cl)cccc1Cl [Diclofenac Sodium]" observedresult=108
compound="CCN(CC)CC(O)CNc1ccc(NCC2CO2)c2c1C(=O)c1ccccc1C2=O (configuration not stated)" observedresult=2.26

Inquiry: Name the reported cell viability value associated with the compound COc1ccc2cc1Oc1ccc(cc1)C[C@H]1c3c(cc4c(c3Oc3cc5c(cc3OC)CCN(C)[C@@H]5C2)OCO4)CCN1C
Reply text: 25.4

Inquiry: What measured cell viability goes with Cc1nc(C#Cc2ccnc(Cl)c2)c(C)n1-c1ccc(OC(F)(F)F)cc1 ?
Reply text: 78.8

Inquiry: // returns reported cell viability for input O=C(NCc1ccncc1)C12CC3CC(C1)CC(c1ccc(Cl)cc1)(C3)C2
Reply text: 61

Inquiry: Dear colleague, I am looking for the recorded cell viability of the following compound: COc1cc2ncnc(Nc3ccc(Oc4ccccc4)cc3C)c2cc1OC
Reply text: 37.5
